- System: CCRF-CEM
- method description: NCI tumour cell line growth inhibition, 48 h
Calls of active or inactive are those of the source. No stated cut-off is given here; in the data, active = GI50 up to about 1.1 µM and inactive = higher. Where a SMILES comes first, the peptide text is derived from it.
Answer with one of the outcomes TRUE (active), FALSE (inactive)

What outcome does the record of this test show for COC(=O)C1=C(C)N(NC(N)=O)C(C)(O)C12CCOC2=O (centres undefined) ?
FALSE

What outcome does the record of this test show for COc1ccc(Br)c(CN2CCc3ccccc32)c1OS(=O)(=O)c1ccc(C)cc1 ?
FALSE

What outcome does the record of this test show for O=C1N/C(=N/N=C/C(O)C(O)C(O)C(O)CO)N/C1=C\c1cccs1 (centres undefined) ?
FALSE

What outcome does the record of this test show for CC1(O)CC2C(CC1SCCO)C2(C)C (centres undefined) ?
FALSE

What outcome does the record of this test show for CC(C)(C)c1ccc(O)c(CN(Cc2cc(C(C)(C)C)ccc2O)C2CCCCC2)c1 ?
FALSE

What outcome does the record of this test show for O=C(NNc1ccc([N+](=O)[O-])cc1)C1OC(CO)C(O)C1O (centres undefined) ?
FALSE

What outcome does the record of this test show for CCC(C)C(NC(=O)C1CCCN1C(=O)C(CC(C)C)NC(=O)C(CC(C)C)NC(=O)C(N)CC(C)C)C(=O)NC(C(=O)NCC(=O)NC(CC(N)=O)C(=O)NC(CC(C)C)C(=O)NC(CC(C)C)C(=O)NC(CC(C)C)C(N)=O)C(C)C (centres undefined) (H-LLLPIVGNLLL-NH2; configuration not given here) ?
FALSE

What outcome does the record of this test show for CNC(=O)CNC(=O)N(C[C@@H]1CCCN1C(=O)[C@H](CC(C)C)NC(=O)OC(C)(C)C)C(C)C ?
FALSE

What outcome does the record of this test show for COc1ccc(CC2C(=O)NC(C)C(=O)N(C)C3C(=O)N(C)C(Cc4ccc(O)c(c4)Oc4ccc(cc4)C3O)C(=O)NC(C)C(=O)NC(C)C(=O)N2C)cc1.COc1ccc(CC2C(=O)NC(C)C(=O)N(C)C3Cc4ccc(cc4)Oc4cc(ccc4O)CC(C(=O)NC(C)C(=O)NC(C)C(=O)N2C)N(C)C3=O)cc1 (centres undefined) ?
TRUE

What outcome does the record of this test show for CC1=NN(C(=O)c2ccccc2O)C(=O)/C1=C/c1ccc(O)cc1 ?
FALSE

What outcome does the record of this test show for COc1nc(C(=O)NNC(=O)c2nc(OC)c3ccccc3c2-c2ccccc2)c(-c2ccccc2)c2ccccc12 ?
FALSE

What outcome does the record of this test show for COc1ccc2c(c1)[n+]([O-])c(-c1cccc(Cl)c1)c(N)[n+]2[O-] ?
FALSE

What outcome does the record of this test show for COC(=O)C(=CNC(N)=O)C(=O)OC ?
FALSE

What outcome does the record of this test show for COc1ccc(C2ON(c3cccc(C)n3)CC=C2C)cc1 (centres undefined) ?
FALSE
